Here the recorded DC50 is given for each entry.
Target: PTPN2 (Homo sapiens, UniProt P17706)
Construct: expressed in transfected cells; host or cells: 293T (293T.109 HiBiT-PTPN2 line; parental 293T WT from ATCC)
Assay: HiBiT-Degradation 293T.109 PTPN2 (Nano-Glo HiBiT Lytic Assay)
Type: cell-based
Conditions: 293T.109 (HiBiT-PTPN2) cells, 24.0 hours

Cn1c(=O)n(C2CCC(=O)NC2=O)c2ccc(N3CCC(CC(=O)N4CCC(c5ccc6cc(O)c(N7CC(=O)NS7(=O)=O)c(F)c6c5)CC4)CC3)cc21 (stereo not drawn) : 200 to 1000 nM
Cn1c(=O)n(C2CCC(=O)NC2=O)c2ccc(C3CCN(CC(=O)N4CCC[C@H](COc5ccc6cc(O)c(N7CC(=O)NS7(=O)=O)c(F)c6c5)C4)CC3)cc21 (stereo partly drawn) : 50 to 200 nM

Attention now shifts to the item below.
Task: Look at this molecule and give its reported DC50. Cn1c(=O)n(C2CCC(=O)NC2=O)c2ccc(C3CCN(CCN4CCC[C@@H](COc5ccc6cc(O)c(N7CC(=O)NS7(=O)=O)c(F)c6c5)C4)CC3)cc21 (stereo partly drawn)
Result: 50 to 200 nM

----------
Molecular target: PTPN2 (Homo sapiens)
Construct: expressed in transfected cells; host or cells: 293T (293T.109 HiBiT-PTPN2 line; parental 293T WT from ATCC)
Sequence (P17706 1-415): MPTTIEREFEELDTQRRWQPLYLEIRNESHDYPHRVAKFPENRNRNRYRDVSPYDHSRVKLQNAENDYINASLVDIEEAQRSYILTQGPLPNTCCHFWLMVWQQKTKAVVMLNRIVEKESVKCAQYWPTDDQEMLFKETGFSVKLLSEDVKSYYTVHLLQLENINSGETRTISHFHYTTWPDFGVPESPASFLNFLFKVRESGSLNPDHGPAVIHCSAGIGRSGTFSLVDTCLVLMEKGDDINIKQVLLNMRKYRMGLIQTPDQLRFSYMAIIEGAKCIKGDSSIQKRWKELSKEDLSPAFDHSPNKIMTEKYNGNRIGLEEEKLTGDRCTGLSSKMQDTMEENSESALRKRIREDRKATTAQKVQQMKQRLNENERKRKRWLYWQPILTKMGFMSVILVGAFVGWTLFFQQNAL
Assay: HiBiT-Degradation 293T.109 PTPN2 (Nano-Glo HiBiT Lytic Assay)
Format: cell-based
Conditions: 293T.109 (HiBiT-PTPN2) cells, 24.0 hours
Recorded DC50, one value per entry.

Example cases with answers are listed next.
Cn1nc(C2CCC(=O)NC2=O)c2ccc(C3CCN(C(=O)Cn4cc(-c5ccc6c(F)c(N7CC(=O)NS7(=O)=O)c(O)cc6c5)cn4)CC3)cc21 (centres unmarked) : 10 to 50 nM
Cn1nc(C2CCC(=O)NC2=O)c2ccc(C3CCN(CCn4cc(-c5ccc6c(F)c(N7CC(=O)NS7(=O)=O)c(O)cc6c5)cn4)CC3)cc21 (centres unmarked) : 10 to 50 nM

Task: Record lookup: for PTPN2 (Homo sapiens), what DC50 belongs to Cn1nc(C2CCC(=O)NC2=O)c2ccc([C@H]3CC[C@@H](CC(=O)Nc4ccc5c(F)c(N6CC(=O)NS6(=O)=O)c(O)cc5c4)CC3)cc21 (some centres unmarked) ?
Result: 10 to 50 nM

Task: Also Cn1c(=O)n(C2CCC(=O)NC2=O)c2ccc(C3CCN(CC(=O)NCCOc4ccc5cc(O)c(N6CC(=O)NS6(=O)=O)c(Cl)c5c4)CC3)cc21 (centres unmarked) ?
Result: 200 to 1000 nM

Task: // same read-out, input: CN(c1ccc(C2CCN(CC(=O)Nc3ccc4c(F)c(N5CC(=O)NS5(=O)=O)c(O)cc4c3)CC2)cc1)C1CCC(=O)NC1=O (centres unmarked)
Result: 200 to 1000 nM

----------
Target: PTPN2 (Homo sapiens)
Construct: expressed in transfected cells; host or cells: 293T (293T.109 HiBiT-PTPN2 line; parental 293T WT from ATCC)
Sequence (P17706 1-415): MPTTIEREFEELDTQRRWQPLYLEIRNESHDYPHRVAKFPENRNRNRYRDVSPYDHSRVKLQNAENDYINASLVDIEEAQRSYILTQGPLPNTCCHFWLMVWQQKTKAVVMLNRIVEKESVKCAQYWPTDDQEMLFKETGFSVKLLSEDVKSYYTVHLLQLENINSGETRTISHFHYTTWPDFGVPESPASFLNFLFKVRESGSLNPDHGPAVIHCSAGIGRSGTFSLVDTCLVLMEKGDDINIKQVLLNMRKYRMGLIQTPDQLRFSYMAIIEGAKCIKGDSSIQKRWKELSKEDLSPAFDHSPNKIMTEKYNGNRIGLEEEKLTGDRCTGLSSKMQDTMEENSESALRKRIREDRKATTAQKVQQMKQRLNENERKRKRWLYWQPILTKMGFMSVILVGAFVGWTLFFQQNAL
Experiment: HiBiT-Degradation 293T.109 PTPN2 (Nano-Glo HiBiT Lytic Assay)
Type: cell-based
Settings: 293T.109 (HiBiT-PTPN2) cells, 24.0 hours
ENDPOINT_LABEL: DC50

CC(C)n1c(=O)n(C2CCC(=O)NC2=O)c2ccc(C3CCN(CC(=O)NCCOc4ccc5cc(O)c(N6CC(=O)NS6(=O)=O)c(F)c5c4)CC3)cc21 (centres unmarked) : 50 to 200 nM
O=C1CCC(N2Cc3c(OCc4cn(CCC(=O)Nc5ccc6c(F)c(N7CC(=O)NS7(=O)=O)c(O)cc6c5)nn4)cccc3C2=O)C(=O)N1 (centres unmarked) : 50 to 200 nM
O=C1CCC(N2C(=O)c3cccc(NCc4cn(C5CN(C(=O)Nc6ccc7c(F)c(N8CC(=O)NS8(=O)=O)c(O)cc7c6)C5)nn4)c3C2=O)C(=O)N1 (centres unmarked) : 50 to 200 nM
Cn1c(=O)n(C2CCC(=O)NC2=O)c2ccc([C@H]3CC[C@@H](CNC(=O)c4ccc5c(F)c(N6CC(=O)NS6(=O)=O)c(O)cc5c4)CC3)cc21 (single isomer, unassigned) : 50 to 200 nM
O=C1CCC(N2Cc3cc(NCc4cn(CCC(=O)Nc5ccc6c(F)c(N7CC(=O)NS7(=O)=O)c(O)cc6c5)nn4)ccc3C2=O)C(=O)N1 (centres unmarked) : 200 to 1000 nM

Task: Name the reported DC50 value associated with the compound Cn1c(=O)n(C2CCC(=O)NC2=O)c2ccc(C3CCN(CCC(=O)N4CCC(c5ccc6cc(O)c(N7CC(=O)NS7(=O)=O)c(F)c6c5)C4)CC3)cc21 (centres unmarked)
Result: 10 to 50 nM

Task: O=C(CCOCCOCCNC(=O)CNc1cccc2c1CN(C1CCC(=O)NC1=O)C2=O)NCCOc1ccc2cc(O)c(N3CC(=O)NS3(=O)=O)c(F)c2c1 (centres unmarked) , same question.
Result: ≥ 1000 nM

Task: Next: Cn1c(=O)n(C2CCC(=O)NC2=O)c2ccc(C3CCN(CC(=O)Nc4ccc5c(F)c(N6CC(=O)NS6(=O)=O)c(O)cc5c4)CC3(F)F)cc21 (centres unmarked)
Result: 50 to 200 nM

Task: // repeat for Cn1c(=O)n(C2CCC(=O)NC2=O)c2ccc(C3CCN(CC(C)(C)CCOc4ccc5cc(O)c(N6CC(=O)NS6(=O)=O)c(F)c5c4)CC3)cc21 (centres unmarked) and report
Result: 10 to 50 nM

Task: Input O=C(CN1CCC(c2ccc3c4c(cccc24)C(=O)N3C2CCC(=O)NC2=O)CC1)NCCOc1ccc2cc(O)c(N3CC(=O)NS3(=O)=O)c(F)c2c1 (centres unmarked)
Result: 10 to 50 nM

Task: Now this one: Cn1c(=O)n(C2CCC(=O)NC2=O)c2ccc(N3CCC(CC(=O)N4CCC[C@H](COc5ccc6cc(O)c(N7CC(=O)NS7(=O)=O)c(F)c6c5)C4)CC3)cc21 (some centres unmarked)
Result: 200 to 1000 nM

----------
Below is a list of entries, each paired with its recorded DC50 value.
Target: PTPN2 (Homo sapiens)
Construct: expressed in transfected cells; host or cells: 293T (293T.109 HiBiT-PTPN2 line; parental 293T WT from ATCC)
Sequence (P17706 1-415): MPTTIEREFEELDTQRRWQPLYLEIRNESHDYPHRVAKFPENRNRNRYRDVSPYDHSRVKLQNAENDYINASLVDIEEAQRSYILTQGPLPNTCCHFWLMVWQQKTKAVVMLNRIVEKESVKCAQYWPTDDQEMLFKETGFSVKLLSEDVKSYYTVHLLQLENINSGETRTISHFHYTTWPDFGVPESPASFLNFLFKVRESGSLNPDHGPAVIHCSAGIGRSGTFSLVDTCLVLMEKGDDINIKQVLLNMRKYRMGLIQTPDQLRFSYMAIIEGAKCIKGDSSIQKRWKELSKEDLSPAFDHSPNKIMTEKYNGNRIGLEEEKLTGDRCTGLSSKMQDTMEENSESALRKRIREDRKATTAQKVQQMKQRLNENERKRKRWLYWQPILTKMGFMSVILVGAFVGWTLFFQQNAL
Test: HiBiT-Degradation 293T.109 PTPN2 (Nano-Glo HiBiT Lytic Assay)
Assay type: cell-based
Conditions: 293T.109 (HiBiT-PTPN2) cells, 24.0 hours
Description: Dulbecco's modified Eagle medium (DMEM) without phenol red and fetal bovine serum (FBS) were purchased from Gibco (Grand Island, NY, USA). Nano-Glo® HiBIT Lytic Assay System was purchased from Promega (Madison, WI, USA). […] PTPN2 degradation was determined based on quantification of luminescent signal using Nano-Glo® HiBIT Lytic Assay kit. […] Luminescence was acquired on EnVision™ Multilabel Reader (PerkinElmer, Santa Clara, CA, USA).

The cases that follow already have their DC50 on record.
Cn1c(=O)n(C2CCC(=O)NC2=O)c2ccc(C3CCN(CC(=O)N4CC(c5ccc6c(F)c(N7CC(=O)NS7(=O)=O)c(O)cc6c5)C4)CC3)cc21 (stereo not drawn) [Example 115] : 200 to 1000 nM
Cn1c(=O)n(C2CCC(=O)NC2=O)c2ccc(C3CCN(CCCCCCOc4ccc5cc(O)c(N6CC(=O)NS6(=O)=O)c(F)c5c4)CC3)cc21 (stereo not drawn) [Example 98] : 10 to 50 nM

Now for the molecule whose DC50 we want.
Task: For the molecule shown here, Cn1c(=O)n(C2CCC(=O)NC2=O)c2ccc(C3CCN(C(=O)CN4CC[C@@H](COc5ccc6cc(O)c(N7CC(=O)NS7(=O)=O)c(F)c6c5)C4)CC3)cc21 (stereo partly drawn) [Example 141] , give the reported DC50.
Result: 10 to 50 nM
